Experiment: viability loss in pontine glioma line – cell-based, SU-DIPG-XIII, MIPE5.0, CellTiter-Glo, qHTS, dose response (AID 1347064);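 for AC50: cells exposed to compound for 48 hours before the viability read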
Conditions: CellTiter-Glo ATP luminescence
Results filed as inconclusive are left out. Active and inactive are the calls of the source. No cut-off is given here; in the data, nearly all actives have AC50 up to about 23 µM.
Readout kind: AC50

Molecular string: Cc1ccc([C@@H]2O[C@H](CO)[C@@H](O)[C@H](O)[C@H]2O)cc1Cc1ccc(-c2ccc(F)cc2)s1
Readout kind: AC50
Recorded result: inactive
//
Molecular string: Nc1ncccc1-c1nc2ccc(-c3ccccc3)nc2n1-c1ccc(C2(N)CCC2)cc1
Readout kind: AC50
Recorded result: 4.17 µM (active)
//
Molecular string: Cc1[nH]c(/C=C2\C(=O)Nc3ccc(F)cc32)c(C)c1C(=O)NC[C@H](O)CN1CCOCC1
Readout kind: AC50
Recorded result: 18.6 µM (active)
//
Molecular string: CN(Cc1ccc(/C=C/C(=O)NO)cc1)CC12CC3CC(CC(C3)C1)C2
Readout kind: AC50
Recorded result: 0.372 µM (active)
//
Molecular string: C#Cc1cccc(Nc2ncnc3cc4c(cc23)OCCOCCOCCO4)c1
Readout kind: AC50
Recorded result: inactive
//
Molecular string: COc1ccc(S(=O)(=O)N(C(C)=O)c2ccccc2/C=C/c2cc[n+]([O-])cc2)cc1
Readout kind: AC50
Recorded result: 2.63 µM (active)
//
Molecular string: CN(C)CCCN=c1c2ccccc2n(C)c2[nH]c(=O)n(C)c(=O)c12
Readout kind: AC50
Recorded result: 26.3 µM (active)
//
Molecular string: Cc1cnc(Nc2ccc(N3CCN(C)CC3)cc2)nc1Nc1cccc(S(=O)(=O)NC(C)(C)C)c1
Readout kind: AC50
Recorded result: 2.95 µM (active)

Prompt: Consider the compound CNC(=O)c1nn(C)c2c1C(C)(C)Cc1cnc(Nc3ccc(N4CCN(C)CC4)cc3)nc1-2 and give its measured AC50.
Response: 6.61 µM (active)
